Consider the following compounds and their measured log10 EC50 readings.
- TESTED_TARGET: CFTR ΔF508 mutant (Homo sapiens, UniProt P13569, DEL508-508)
- Sequence (P13569 with tags, fused parts or gaps DEL508-508): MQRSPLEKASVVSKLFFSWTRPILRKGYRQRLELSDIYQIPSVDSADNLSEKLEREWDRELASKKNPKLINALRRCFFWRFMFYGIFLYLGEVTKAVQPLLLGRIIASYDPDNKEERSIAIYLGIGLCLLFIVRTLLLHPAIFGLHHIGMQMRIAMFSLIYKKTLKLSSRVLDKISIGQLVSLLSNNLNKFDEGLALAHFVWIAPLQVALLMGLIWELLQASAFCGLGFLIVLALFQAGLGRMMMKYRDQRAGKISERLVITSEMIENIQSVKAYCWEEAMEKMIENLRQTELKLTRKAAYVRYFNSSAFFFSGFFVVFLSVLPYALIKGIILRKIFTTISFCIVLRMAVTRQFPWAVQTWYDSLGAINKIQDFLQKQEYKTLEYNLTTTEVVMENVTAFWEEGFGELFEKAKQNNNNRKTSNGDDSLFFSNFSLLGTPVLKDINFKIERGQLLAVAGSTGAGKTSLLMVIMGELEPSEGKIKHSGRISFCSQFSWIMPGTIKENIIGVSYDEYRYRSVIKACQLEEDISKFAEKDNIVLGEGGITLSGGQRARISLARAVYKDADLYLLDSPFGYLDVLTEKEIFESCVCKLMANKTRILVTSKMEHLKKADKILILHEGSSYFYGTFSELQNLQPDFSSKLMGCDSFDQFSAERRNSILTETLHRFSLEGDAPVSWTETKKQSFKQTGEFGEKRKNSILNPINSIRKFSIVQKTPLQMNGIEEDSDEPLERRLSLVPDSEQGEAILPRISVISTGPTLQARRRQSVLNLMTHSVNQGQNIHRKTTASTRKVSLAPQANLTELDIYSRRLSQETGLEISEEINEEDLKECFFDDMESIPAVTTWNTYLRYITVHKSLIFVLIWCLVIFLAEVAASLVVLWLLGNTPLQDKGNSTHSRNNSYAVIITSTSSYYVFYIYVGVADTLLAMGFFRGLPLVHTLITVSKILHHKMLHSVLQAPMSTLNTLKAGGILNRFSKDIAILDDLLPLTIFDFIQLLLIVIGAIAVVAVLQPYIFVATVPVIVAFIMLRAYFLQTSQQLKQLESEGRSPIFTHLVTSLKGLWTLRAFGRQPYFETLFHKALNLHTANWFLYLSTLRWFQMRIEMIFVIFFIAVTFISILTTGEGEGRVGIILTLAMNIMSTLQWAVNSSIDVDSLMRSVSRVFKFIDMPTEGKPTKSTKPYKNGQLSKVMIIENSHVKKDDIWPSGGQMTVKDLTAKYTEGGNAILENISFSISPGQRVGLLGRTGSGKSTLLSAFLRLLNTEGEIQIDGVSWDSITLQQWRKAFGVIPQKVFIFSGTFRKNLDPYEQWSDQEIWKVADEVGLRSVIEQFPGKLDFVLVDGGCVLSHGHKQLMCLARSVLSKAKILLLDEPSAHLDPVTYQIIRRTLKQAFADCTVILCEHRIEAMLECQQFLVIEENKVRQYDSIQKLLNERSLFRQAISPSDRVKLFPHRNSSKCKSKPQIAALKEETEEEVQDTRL
- ASSAY_REMARKS: YFP-halide influx assay for the CFTR-ΔF508 mutation (CFBE41o- cells)
- CONDITION_SUMMARY: forskolin 10.67 μM, from (1−F/F0) vs concentration plot
Reminder: these figures are log10 of reported EC50, in nM before transformation.

Example results:
COc1ccc(CN(C)S(=O)(=O)c2cnc(C(=O)NCC(O)C(F)(F)F)c(N)c2)cc1 (stereo not shown) = 1.25
Nc1cc(S(=O)(=O)c2ccc(OC(F)(F)F)cc2)cnc1C(=O)N1CC2(CCOC2)C1 = 1.82
C[C@H](O)CNC(=O)c1ncc(S(=O)(=O)N2CCC[C@@H]2C)cc1N = 2.26
Nc1cc(S(=O)(=O)c2ccc(OC(F)(F)F)cc2)cnc1C(=O)NCC1(O)CC1 = 0.41
Nc1cc(S(=O)(=O)c2ccccc2OC(F)(F)F)cnc1C(=O)N[C@@H]1COCC[C@@H]1O (racemic) = 0.80

Okay, now this compound:
# input compound: Nc1cc(S(=O)(=O)c2ccc(C(F)(F)F)cc2)cnc1C(=O)N1CC(C(F)(F)F)C1 ; wanted: its log10 EC50
1.53

* * *

- TESTED_TARGET: CFTR ΔF508 mutant (Homo sapiens, UniProt P13569, DEL508-508)
- Construct: expressed in transfected cells; host or cells: CFBE41o- cells, adenoviral transduction
- ASSAY_REMARKS: YFP-halide influx assay for the CFTR-ΔF508 mutation (CFBE41o- cells)
- Type: cell-based
- CONDITION_SUMMARY: forskolin 10.67 μM
OBSERVABLE: % Activation (%)
Give a bare numeral; the unit % is implied.

Nc1cc(S(=O)(=O)c2ccc(OC(F)(F)F)cc2)cnc1C(=O)N1CC(O)(C(F)(F)F)C1 [Compound 79] = 99.5
CC(C)C1(O)CN(C(=O)c2ncc(S(=O)(=O)c3ccc(OC(F)(F)F)cc3F)cc2N)C1 [Compound 175] = 103.0
Nc1cc(S(=O)(=O)c2ccc(OC(F)(F)F)cc2)cnc1C(=O)NCC(O)CF (centres unmarked) [Compound 273] = 112.0
COCCCNC(=O)c1ncc(S(=O)(=O)c2ccc(OC(F)(F)F)cc2)cc1N [Compound 123] = 98.5
CCC(CO)NC(=O)c1ncc(S(=O)(=O)c2ccc(OC(F)(F)F)cc2)cc1N (centres unmarked) [Compound 12] = 114.5

Using the record for CC1(C)CN(C(=O)c2ncc(S(=O)(=O)c3ccc(C(F)(F)F)cc3F)cc2N)C1 [Compound 111] , report its % Activation.
103.2

Would you kindly share the measured % Activation for Nc1cc(S(=O)(=O)c2ccc(OC(F)(F)F)cc2)cnc1C(=O)N[C@@H]1COC[C@H]1O (racemic) [Compound 74] ?
110.0

Field request: % Activation | item: Nc1cc(S(=O)(=O)c2ccc(OC(F)(F)F)cc2)cnc1C(=O)N1CC[C@H](F)C1 [Compound 206]
103.0

Given the molecule Nc1cc(S(=O)(=O)c2ccc(OC(F)(F)F)cc2)cnc1C(=O)NC1CCOC1 (centres unmarked) [Compound 127] , what is its reported % Activation?
107.0

Request the reported % Activation associated with Nc1cc(S(=O)(=O)c2ccc(C(F)(F)F)cc2)cnc1C(=O)N[C@H]1COCC[C@H]1O [Compound 257]
122.0

* * *

% Activation reference
- TESTED_TARGET: CFTR-G178R (Homo sapiens, UniProt P13569, G178R)
- Construct: expressed in transfected cells
- Sequence (P13569 whole entry G178R): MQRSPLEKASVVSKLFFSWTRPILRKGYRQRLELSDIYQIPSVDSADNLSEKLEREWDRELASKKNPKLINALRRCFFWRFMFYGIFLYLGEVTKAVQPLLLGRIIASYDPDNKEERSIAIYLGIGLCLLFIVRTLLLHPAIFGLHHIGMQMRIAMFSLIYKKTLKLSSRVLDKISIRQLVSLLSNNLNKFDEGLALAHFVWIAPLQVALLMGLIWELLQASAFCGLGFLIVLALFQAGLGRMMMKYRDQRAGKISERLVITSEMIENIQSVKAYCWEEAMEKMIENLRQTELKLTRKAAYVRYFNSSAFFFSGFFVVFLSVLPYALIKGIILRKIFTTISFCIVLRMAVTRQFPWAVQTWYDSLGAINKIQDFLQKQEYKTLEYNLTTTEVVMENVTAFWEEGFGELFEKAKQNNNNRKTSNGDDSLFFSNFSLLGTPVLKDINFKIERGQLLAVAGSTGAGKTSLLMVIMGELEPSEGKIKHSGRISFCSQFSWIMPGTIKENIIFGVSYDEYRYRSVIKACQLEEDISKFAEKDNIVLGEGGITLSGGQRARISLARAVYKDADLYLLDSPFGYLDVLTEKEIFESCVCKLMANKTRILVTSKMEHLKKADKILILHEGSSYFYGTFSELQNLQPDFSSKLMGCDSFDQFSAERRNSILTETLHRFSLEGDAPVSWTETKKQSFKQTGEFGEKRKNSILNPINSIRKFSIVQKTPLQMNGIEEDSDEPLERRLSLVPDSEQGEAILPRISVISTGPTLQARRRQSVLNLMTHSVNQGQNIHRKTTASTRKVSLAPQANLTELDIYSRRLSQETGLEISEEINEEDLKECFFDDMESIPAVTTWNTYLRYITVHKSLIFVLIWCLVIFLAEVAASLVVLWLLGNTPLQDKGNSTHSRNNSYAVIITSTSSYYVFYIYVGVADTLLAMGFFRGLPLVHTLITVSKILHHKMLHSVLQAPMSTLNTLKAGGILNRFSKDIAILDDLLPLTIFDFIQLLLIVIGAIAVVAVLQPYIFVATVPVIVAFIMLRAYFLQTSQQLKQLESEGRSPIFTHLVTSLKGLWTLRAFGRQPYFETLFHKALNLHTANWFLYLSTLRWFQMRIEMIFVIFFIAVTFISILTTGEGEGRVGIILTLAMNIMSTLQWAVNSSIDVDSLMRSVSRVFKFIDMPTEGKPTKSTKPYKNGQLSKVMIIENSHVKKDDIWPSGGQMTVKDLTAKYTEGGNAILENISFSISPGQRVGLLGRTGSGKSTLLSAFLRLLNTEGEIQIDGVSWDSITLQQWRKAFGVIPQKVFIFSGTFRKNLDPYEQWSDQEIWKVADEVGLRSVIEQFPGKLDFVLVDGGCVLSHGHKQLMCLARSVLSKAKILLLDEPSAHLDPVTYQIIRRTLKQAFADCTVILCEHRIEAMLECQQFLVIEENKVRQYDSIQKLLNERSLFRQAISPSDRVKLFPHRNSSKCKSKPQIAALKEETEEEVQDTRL
- ASSAY_REMARKS: YFP-halide influx assay for the CFTR-G178R
- Format: cell-based
Phrase the answer as number then unit, nothing more needed.

Some compounds with known % Activation results, for comparison:
Nc1cc(S(=O)(=O)c2ccc(OC(F)(F)F)cc2)cnc1C(=O)N1CC(O)C1 [Compound 32] = 78.0%
Nc1cc(S(=O)(=O)c2ccc(OC(F)(F)F)cc2)cnc1C(=O)Nc1cc[nH]n1 [Compound 291] = 79.3%
CC(C)(C)C(O)CNC(=O)c1ncc(S(=O)(=O)c2ccc(OC(F)(F)F)cc2)cc1N (stereo not drawn) [Compound 16] = 102.0%

Given the compound Nc1cc(S(=O)(=O)c2ccc(OC(F)(F)F)cc2)cnc1C(=O)N1CC(F)(F)C1 [Compound 40] , what is its reported % Activation?
81.76%

Fill in the blank: the reported % Activation of Nc1cc(S(=O)(=O)c2ccc(F)cc2)cnc1C(=O)NC[C@H](O)C(F)(F)F [Compound 25] is ____.
76.8%

Quick one: % Activation of Nc1cc(S(=O)(=O)c2ccc(F)cc2)c(-c2ccc(F)cc2)nc1C(=O)NC[C@@H](O)C(F)(F)F [Compound 259] ?
97.2%

* * *

- TESTED_TARGET: CFTR G551D mutant (Homo sapiens, UniProt P13569, G551D)
- Construct: expressed in transfected cells; host or cells: HEK293 cells, reverse transfection with plasmids
- Sequence (P13569 whole entry G551D): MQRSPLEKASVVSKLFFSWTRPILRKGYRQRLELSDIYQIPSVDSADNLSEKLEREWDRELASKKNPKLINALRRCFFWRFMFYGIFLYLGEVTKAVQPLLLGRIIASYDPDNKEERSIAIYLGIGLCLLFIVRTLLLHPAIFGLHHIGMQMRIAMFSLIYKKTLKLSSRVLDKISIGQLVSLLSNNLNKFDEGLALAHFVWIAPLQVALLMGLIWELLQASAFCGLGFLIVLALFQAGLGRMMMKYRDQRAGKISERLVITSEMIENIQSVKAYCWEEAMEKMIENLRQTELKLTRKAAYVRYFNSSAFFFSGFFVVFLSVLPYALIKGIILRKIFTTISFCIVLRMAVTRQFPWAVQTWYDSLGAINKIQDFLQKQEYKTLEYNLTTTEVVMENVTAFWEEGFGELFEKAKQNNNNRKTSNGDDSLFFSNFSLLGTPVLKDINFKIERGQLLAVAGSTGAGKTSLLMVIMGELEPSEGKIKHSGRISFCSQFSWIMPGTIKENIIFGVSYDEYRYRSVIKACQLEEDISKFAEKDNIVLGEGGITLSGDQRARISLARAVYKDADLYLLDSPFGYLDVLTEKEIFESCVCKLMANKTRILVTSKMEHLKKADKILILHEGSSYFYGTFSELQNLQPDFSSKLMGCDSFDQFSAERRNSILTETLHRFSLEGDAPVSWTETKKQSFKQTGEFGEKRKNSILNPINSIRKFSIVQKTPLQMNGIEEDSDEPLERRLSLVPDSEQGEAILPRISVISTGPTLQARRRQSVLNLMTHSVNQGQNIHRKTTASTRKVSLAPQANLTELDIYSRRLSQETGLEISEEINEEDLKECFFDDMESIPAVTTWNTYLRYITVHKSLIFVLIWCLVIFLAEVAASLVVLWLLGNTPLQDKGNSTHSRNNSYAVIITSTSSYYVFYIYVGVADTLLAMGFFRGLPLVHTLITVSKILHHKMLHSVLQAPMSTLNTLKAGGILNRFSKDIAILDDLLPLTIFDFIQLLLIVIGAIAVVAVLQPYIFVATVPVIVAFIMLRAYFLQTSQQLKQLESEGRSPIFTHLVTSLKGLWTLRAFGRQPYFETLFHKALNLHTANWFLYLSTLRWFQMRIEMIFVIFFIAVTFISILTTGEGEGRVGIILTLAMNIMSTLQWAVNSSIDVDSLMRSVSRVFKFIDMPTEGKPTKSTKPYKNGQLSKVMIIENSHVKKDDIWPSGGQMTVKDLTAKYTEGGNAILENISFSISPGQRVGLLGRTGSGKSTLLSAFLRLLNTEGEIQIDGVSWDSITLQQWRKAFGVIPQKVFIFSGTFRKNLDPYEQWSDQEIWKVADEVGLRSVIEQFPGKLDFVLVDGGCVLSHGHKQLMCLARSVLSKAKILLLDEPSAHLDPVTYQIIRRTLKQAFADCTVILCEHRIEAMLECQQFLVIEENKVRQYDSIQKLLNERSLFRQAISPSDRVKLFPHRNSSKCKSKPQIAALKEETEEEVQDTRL
- ASSAY_REMARKS: YFP-halide influx assay for the CFTR-G551D mutation (HEK293 cells)
- Format: cell-based
- CONDITION_SUMMARY: forskolin 10.67 μM
OBSERVABLE: % Activation (%)
Reply numerically in %, unit not repeated.

Known results for molecules:
Nc1cc(S(=O)(=O)c2ccc(OC(F)(F)F)cc2)cnc1C(=O)NCC(O)COCC1CC1 (stereo not drawn) = 71.7
Nc1cc(S(=O)(=O)c2ccc(OC(F)(F)F)cc2)cnc1C(=O)NCC1(CO)CCC1 = 57.4
Nc1cc(S(=O)(=O)c2ccc(C(F)(F)F)cc2)cnc1C(=O)NCCOC(F)(F)F = 50.6

What value of measured % Activation is listed for CC(C)COCC(O)CNC(=O)c1ncc(S(=O)(=O)c2ccc(C(F)(F)F)cc2F)cc1N (stereo not drawn) ?
82.5

Request the reported % Activation associated with Nc1cc(S(=O)(=O)c2ccc(OC(F)(F)F)cc2)cnc1C(=O)NCC(O)C1CCOC1 (stereo not drawn)
61.0

Entry under review: Nc1cc(S(=O)(=O)c2ccc(OC(F)(F)F)cc2)cnc1C(=O)NNC(=O)CO . Reported % Activation?
24.3

Request the reported % Activation associated with C[C@H](O)CNC(=O)c1ncc(S(=O)(=O)c2ccc(C(F)(F)F)cc2F)cc1N
60.2

Need % Activation, item Nc1cc(S(=O)(=O)c2ccc(OC(F)(F)F)cc2)cnc1C(=O)NCC(O)CF (stereo not drawn)
39.5

// query % Activation value for entry Nc1cc(S(=O)(=O)c2ccc(F)cc2)cnc1C(=O)NCCC(O)C(F)(F)F (stereo not drawn)
44.2

Given Nc1cc(S(=O)(=O)c2ccc(OC(F)(F)F)cc2)cnc1C(=O)N1CC[C@@H](F)C1 , state its recorded % Activation.
73.9

Return reported % Activation; argument: C[C@H](O)CNC(=O)c1ncc(S(=O)(=O)N2CCCC2CO)cc1N (mixture of isomers)
0.3

Which % Activation value is on record for COc1ccc(S(=O)(=O)c2cnc(C(=O)NCC(O)C(F)(F)F)c(N)c2)cc1 (stereo not drawn) ?
71.6

# lookup: % Activation of C[C@H](O)CNC(=O)c1nc(-c2ccc(F)cc2)c(S(=O)(=O)C2CCCC2)cc1N
16.6

Bench note: what % Activation did Nc1cc(S(=O)(=O)c2ccc(OC(F)(F)F)cc2)cnc1C(=O)NCC(=O)NC1CC1 show?
42.3

Please look up its % Activation: CC1CN(C(=O)c2ncc(S(=O)(=O)c3ccc(OC(F)(F)F)cc3)cc2N)C1
62.2

Could you tell me which % Activation is on file for CN(Cc1ccc(F)cc1F)S(=O)(=O)c1cnc(C(=O)NCC(O)C(F)(F)F)c(N)c1 (stereo not drawn) ?
69.6

Could you share which % Activation value was measured for C[C@H](O)CNC(=O)c1nc(N(C)C)c(S(=O)(=O)c2ccc(OC(F)(F)F)cc2)cc1N ?
96.5

% Activation lookup needed for CC(C)NC(=O)CNC(=O)c1ncc(S(=O)(=O)N2CCC[C@@H]2C)cc1N , thanks.
23.8

* * *

Listed here: items and their measured pEC50.
- TESTED_TARGET: CFTR G551D mutant (Homo sapiens, UniProt P13569, G551D)
- Construct: expressed in transfected cells; host or cells: HEK293 cells, reverse transfection with plasmids
- ASSAY_REMARKS: YFP-halide influx assay for the CFTR-G551D mutation (HEK293 cells)
- Format: cell-based
- CONDITION_SUMMARY: forskolin 10.67 μM
Scale: negative log10 of molar concentration, which is what pEC50 denotes.

Solved cases below.
Nc1cc(S(=O)(=O)c2ccc(OC(F)(F)F)cc2)cnc1C(=O)NCC(=O)NC1CC1 [Compound 58] = 5.97
CC(O)(CNC(=O)c1ncc(S(=O)(=O)c2ccc(OC(F)(F)F)cc2)cc1N)C(F)(F)F (stereo not drawn) [Compound 2] = 6.13
Nc1cc(S(=O)(=O)c2ccc(OC(F)(F)F)cc2)cnc1C(=O)NCC(O)COCC1CC1 (stereo not drawn) [Compound 31] = 6.37
CC(C)(C)C(O)CNC(=O)c1ncc(S(=O)(=O)c2ccc(OC(F)(F)F)cc2)cc1N (stereo not drawn) [Compound 16] = 5.78

State its pEC50 on CFTR G551D mutant (Homo sapiens, UniProt P13569, G551D): CCOCC(O)CNC(=O)c1ncc(S(=O)(=O)c2ccc(OC(F)(F)F)cc2)cc1N (stereo not drawn) [Compound 88]
6.12

What reported pEC50 corresponds to CC(C)NC(=O)CNC(=O)c1ncc(S(=O)(=O)c2ccc(OC(F)(F)F)cc2F)cc1N [Compound 135] on CFTR G551D mutant (Homo sapiens, UniProt P13569, G551D)?
5.24

Reported pEC50 for CFTR G551D mutant (Homo sapiens, UniProt P13569, G551D), given Nc1cc(S(=O)(=O)c2ccc(F)cc2)c(Br)nc1C(=O)NC[C@@H](O)C(F)(F)F [Compound 250] ?
6.34

CFTR G551D mutant (Homo sapiens, UniProt P13569, G551D) / pEC50 / CC(C)OCC(O)CNC(=O)c1ncc(S(=O)(=O)c2ccc(C(F)(F)F)cc2F)cc1N (stereo not drawn) [Compound 133] : value?
6.60

// fetch CFTR G551D mutant (Homo sapiens, UniProt P13569, G551D) pEC50 for Nc1cc(S(=O)(=O)c2ccc(OC(F)(F)F)cc2F)cnc1C(=O)N1CC(F)(F)C1 [Compound 172]
6.06

Provide value of pEC50 for this record tested with CFTR G551D mutant (Homo sapiens, UniProt P13569, G551D): Nc1cc(S(=O)(=O)c2ccc(C(F)(F)F)cc2)cnc1C(=O)NCC(O)COCC1CC1 (stereo not drawn) [Compound 131]
6.09

# value lookup — system CFTR G551D mutant (Homo sapiens, UniProt P13569, G551D), readout pEC50, item Nc1cc(S(=O)(=O)c2ccc(OC(F)(F)F)cc2)cnc1C(=O)N[C@H]1CCOC1 [Compound 144]
5.95

Provide value of pEC50 for this record tested with CFTR G551D mutant (Homo sapiens, UniProt P13569, G551D): CC(C)S(=O)(=O)c1cc(N)c(C(=O)NC[C@H](C)O)nc1-c1ccc(F)cc1 [Compound 264]
5.70

Lab note: need pEC50 with CFTR G551D mutant (Homo sapiens, UniProt P13569, G551D) for entry CN(C)C(=O)C1CN(C(=O)c2ncc(S(=O)(=O)c3ccc(OC(F)(F)F)cc3)cc2N)C1 [Compound 62] , please look it up.
5.86
